Molecular target: Eng195 M2-N31 CD peptide (aa 18-60) (Influenza A virus, UniProt P06821, A27V/L43T)
Type: biochemical, Influenza A/England/195/2009 (H1N1)
quantity_name: effect on M2-N31 CD peptide channel activity

>>> df
                                   compound       reported_result
0             O=C(Nc1nnc[nH]1)c1cc2ccccc2o1               not N31
1    c1cc2nc(C34CC5CC(CC(C5)C3)C4)[nH]c2cn1             inhibited
2            CN1CCN(C(=O)c2ccc3ccccc3c2)CC1               not N31
3  c1csc(-c2cc(CNC34CC5CC(CC(C5)C3)C4)no2)c1 [M2WJ332, reference compound]  blocked the activity
4  CCN1CCC(NC2C3CC4CC(C3)CC2C4)CC1 (centres unmarked)           no activity
5  OC(CN1CCCC1)C12CC3CC(CC(C3)C1)C2 (centres unmarked)           no activity
6         Cc1ncc(C23CC4CC(CC(C4)C2)C3)[nH]1             inhibited
7                  OCCNC12CC3CC(CC(C3)C1)C2             inhibited
8  CCCCCCCCCN1C[C@H](O)[C@@H](O)[C@H](O)[C@H]1CO [NNDNJ, reference compound]  blocked the activity

###

Target: Eng195 M2-S31 CD peptide (aa 18-60) (Influenza A virus, UniProt P06821, A27V/L43T/N31S)
Type: biochemical, Influenza A/England/195/2009 (H1N1)
quantity_name: % M2 activity (40 µM) S31 CD (%)

>>> df
                                   compound                              study_target  reported_result
0  Cc1c2ccccc2n2cc(-c3ccccc3)nc(C(C)C)c12 [DL7]  Eng195 M2-S31 CD peptide (aa 18-60) (Influenza A virus, UniProt P06821, A27V/L43T/N31S)             31.3
1  COc1ccccc1NC(=S)NC(=O)c1cc2ccccc2cc1OC [L1.1]  Eng195 M2-S31 CD peptide (aa 18-60) (Influenza A virus, UniProt P06821, A27V/L43T/N31S)             41.8
2          Cc1ccc2nc(Oc3ccccc3)ccc2c1 [DP9]  Eng195 M2-S31 CD peptide (aa 18-60) (Influenza A virus, UniProt P06821, A27V/L43T/N31S)             97.4
3  c1csc(-c2cc(CNC34CC5CC(CC(C5)C3)C4)no2)c1 [M2WJ332, reference compound]  Eng195 M2-S31 CD peptide (aa 18-60) (Influenza A virus, UniProt P06821, A27V/L43T/N31S)               85

###

# % M2 activity (40 µM) N31 TM values compiled below
Target: Eng195 M2-N31 TM peptide (aa 18-46) (Influenza A virus, UniProt P06821, A27V/L43T)
Assay type: biochemical, Influenza A/England/195/2009 (H1N1)
quantity_name: % M2 activity (40 µM) N31 TM (%)

                                   molecule                 quantity_name  reported_result
0  Cc1c2ccccc2n2cc(-c3ccccc3)nc(C(C)C)c12 [DL7]  % M2 activity (40 µM) N31 TM             15.0
1  COc1ccccc1NC(=S)NC(=O)c1cc2ccccc2cc1OC [L1.1]  % M2 activity (40 µM) N31 TM             22.0
2          Cc1ccc2nc(Oc3ccccc3)ccc2c1 [DP9]  % M2 activity (40 µM) N31 TM              100
3  c1csc(-c2cc(CNC34CC5CC(CC(C5)C3)C4)no2)c1 [M2WJ332, reference compound]  % M2 activity (40 µM) N31 TM              100
